Test system: S. aureus ATCC 43300 (MRSA)
Test: MIC/MBC against MDRB, paper disk diffusion
Assay type: cell-based
Details: Staphylococcus aureus
Catalogue of MBC values
# value in µg/mL; strip the unit string

As a guide, the following entries are already answered.
test.smiles	target.under.test	unit.info	MBC
COc1ccc(Nc2n[nH]c(N=Cc3c(C)n(C)n(-c4ccccc4)c3=O)c2C(=O)Nc2ccccc2)cc1	S. aureus ATCC 43300 (MRSA)	µg/mL	11.9
COc1ccc(Nc2n[nH]c(N=Cc3c(C)nn(-c4ccccc4)c3Cl)c2C(=O)Nc2ccccc2)cc1	S. aureus ATCC 43300 (MRSA)	µg/mL	15.6
COc1ccc(Nc2n[nH]c(N=Cc3c(C)nn(-c4ccccc4)c3Cl)c2C(=O)Nc2ccc(C)cc2)cc1	S. aureus ATCC 43300 (MRSA)	µg/mL	14.8

Next:
Given the compound COc1ccc(Nc2n[nH]c(N=Cc3ccc(N4CCCCC4)cc3)c2C(=O)Nc2ccc(Cl)cc2)cc1 , what is its reported MBC?
31.2

###

Target: B. subtilis DNA Gyrase (Bacillus subtilis, UniProt P05652+P05653)
Sequence (P05652 whole entry): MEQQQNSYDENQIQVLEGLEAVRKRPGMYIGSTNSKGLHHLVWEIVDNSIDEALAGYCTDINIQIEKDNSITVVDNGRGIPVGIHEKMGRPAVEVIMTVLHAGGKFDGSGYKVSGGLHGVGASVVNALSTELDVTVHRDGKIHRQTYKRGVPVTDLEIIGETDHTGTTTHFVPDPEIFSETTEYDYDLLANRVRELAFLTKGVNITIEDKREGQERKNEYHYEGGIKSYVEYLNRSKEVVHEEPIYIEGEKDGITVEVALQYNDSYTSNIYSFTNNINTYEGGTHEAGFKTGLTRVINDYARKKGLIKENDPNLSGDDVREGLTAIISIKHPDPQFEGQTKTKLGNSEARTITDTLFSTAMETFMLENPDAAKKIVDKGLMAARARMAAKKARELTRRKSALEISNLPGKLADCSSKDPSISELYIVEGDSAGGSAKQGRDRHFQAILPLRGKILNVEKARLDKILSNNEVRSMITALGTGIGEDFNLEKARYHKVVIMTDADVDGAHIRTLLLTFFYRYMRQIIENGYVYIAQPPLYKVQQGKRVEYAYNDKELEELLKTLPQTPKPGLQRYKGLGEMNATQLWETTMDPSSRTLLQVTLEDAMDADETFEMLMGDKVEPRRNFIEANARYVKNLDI
Sequence (P05653 whole entry): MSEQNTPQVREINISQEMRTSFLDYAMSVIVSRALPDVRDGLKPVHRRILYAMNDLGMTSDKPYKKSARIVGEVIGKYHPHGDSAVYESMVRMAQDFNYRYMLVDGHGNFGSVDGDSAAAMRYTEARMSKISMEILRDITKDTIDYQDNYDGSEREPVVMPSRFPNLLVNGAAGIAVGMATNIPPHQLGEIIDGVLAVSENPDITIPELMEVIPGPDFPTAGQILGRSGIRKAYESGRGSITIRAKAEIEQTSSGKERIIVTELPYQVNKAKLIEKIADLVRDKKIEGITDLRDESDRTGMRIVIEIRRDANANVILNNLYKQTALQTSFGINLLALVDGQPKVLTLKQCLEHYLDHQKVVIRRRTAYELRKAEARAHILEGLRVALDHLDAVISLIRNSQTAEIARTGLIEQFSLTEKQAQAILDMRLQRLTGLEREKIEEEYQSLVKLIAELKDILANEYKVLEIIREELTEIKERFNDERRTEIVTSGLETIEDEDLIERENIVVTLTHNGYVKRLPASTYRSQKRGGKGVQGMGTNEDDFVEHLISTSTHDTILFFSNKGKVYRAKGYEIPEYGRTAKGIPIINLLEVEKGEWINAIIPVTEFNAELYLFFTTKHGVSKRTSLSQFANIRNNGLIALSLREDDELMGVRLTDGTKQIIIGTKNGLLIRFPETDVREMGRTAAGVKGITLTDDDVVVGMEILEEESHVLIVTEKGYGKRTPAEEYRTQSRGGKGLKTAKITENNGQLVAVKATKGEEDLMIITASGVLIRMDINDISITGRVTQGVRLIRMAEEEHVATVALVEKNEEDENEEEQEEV
Test: DNA gyrase enzyme assay
Settings: Mean ± SEM
experimental.readout: IC50 (µM)
# value in µM; strip the unit string

test.smiles	IC50 (µM)
COc1ccc(Nc2n[nH]c(N=Cc3ccc(N4CCCCC4)cc3)c2C(N)=O)cc1	15.3

Next:
Given the compound COc1ccc(Nc2n[nH]c(N=Cc3cc(OC)c(OC)c(OC)c3)c2C(=O)Nc2ccccc2)cc1 , what is its reported IC50?
14.2

###

Catalogue of zone of inhibition at 500 µg/mL values
Test system: Escherichia coli
Assay: Inhibition zone, agar plate diffusion
Type: cell-based
Settings: read-out: Inhibition zone (IZ)
# value in mm; strip the unit string

As a guide, the following entries are already answered.
test.smiles	zone of inhibition at 500 µg/mL (mm)
COc1ccc(Nc2n[nH]c(N=Cc3c(C)nn(-c4ccccc4)c3Cl)c2C(=O)Nc2ccccc2)cc1	21
COc1ccc(Nc2n[nH]c(N=Cc3c(C)n(C)n(-c4ccccc4)c3=O)c2C(=O)Nc2ccc(C)cc2)cc1	22
COc1ccc(Nc2n[nH]c(N=Cc3ccc(N4CCCCC4)cc3)c2C(=O)Nc2ccc(Cl)cc2)cc1	26
COc1ccc(Nc2n[nH]c(N=Cc3c(C)n(C)n(-c4ccccc4)c3=O)c2C(=O)Nc2ccc(Cl)cc2)cc1	19
COc1ccc(Nc2n[nH]c(N=Cc3ccc(N4CCCCC4)cc3)c2C(=O)Nc2ccc(C)cc2)cc1	18

Next:
Given the molecule COc1ccc(Nc2n[nH]c(N=Cc3ccc(N4CCCCC4)cc3)c2C(=O)Nc2ccccc2)cc1 , what is its reported zone of inhibition at 500 µg/mL?
14

###

Test system: Escherichia coli
Assay: Inhibition zone, agar plate diffusion
Type: cell-based
Settings: read-out: Inhibition zone (IZ)
experimental.readout: zone of inhibition at 500 µg/mL (mm)
# value in mm; strip the unit string

As a guide, the following entries are already answered.
molecule	endpoint.result
COc1ccc(Nc2n[nH]c(N=Cc3c(C)nn(-c4ccccc4)c3Cl)c2C(=O)Nc2ccc(C)cc2)cc1 [7c]	30
COc1ccc(Nc2n[nH]c(N=Cc3c(C)nn(-c4ccccc4)c3Cl)c2C(=O)Nc2ccc(Cl)cc2)cc1 [7d]	27

Next:
// map COc1ccc(Nc2n[nH]c(N=Cc3c(C)n(C)n(-c4ccccc4)c3=O)c2C(=O)Nc2ccccc2)cc1 [6b] to recorded zone of inhibition at 500 µg/mL (system: Escherichia coli)
25
